Please respond with reported IC50 for every item in the list.
assayedSystem: Proteasome Macropain subunit MB1 (Homo sapiens, UniProt P28074)
Sequence (P28074 whole entry): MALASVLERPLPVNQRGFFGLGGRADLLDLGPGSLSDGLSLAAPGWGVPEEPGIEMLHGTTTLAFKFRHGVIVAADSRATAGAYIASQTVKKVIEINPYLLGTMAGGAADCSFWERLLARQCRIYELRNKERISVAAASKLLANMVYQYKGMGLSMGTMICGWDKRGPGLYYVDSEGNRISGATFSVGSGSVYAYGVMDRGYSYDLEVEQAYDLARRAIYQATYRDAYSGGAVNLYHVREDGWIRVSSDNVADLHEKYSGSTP
assayText: Inhibition of chymotrypsin like activity of human 20S proteasome after 1 hr by luminescence assay
Give bare numbers, in nM.

// for each molecule below, give its IC50
1. C[C@@]12OC(=O)[C@]1([C@@H](O)C1CCCCC1)NC(=O)[C@@H]2CCCCl
2. C[C@@]12OC(=O)[C@]1([C@@H](O)C1CCCCC1)NC(=O)[C@@H]2CC=O
3. C[C@@]12OC(=O)[C@]1([C@@H](O)Cc1ccccc1)NC(=O)[C@@H]2CCCl
4. COC(=O)C[C@H]1C(=O)N[C@@]2([C@@H](O)C3CCCCC3)C(=O)O[C@@]12C
5. C[C@@]12OC(=O)[C@]1([C@@H](O)[C@@H]1C=CCCC1)NC(=O)[C@@H]2CCCl
6. C[C@@]12OC(=O)[C@]1([C@@H](O)C1CC1)NC(=O)[C@@H]2CCCl
7. C[C@@]12OC(=O)[C@]1([C@@H](O)C1CCCCC1)NC(=O)[C@@H]2CCCl

Ans:
1. 50
2. 330
3. 500
4. 500
5. 22
6. 28
7. 23
